These entries and their values trace back to ChEMBL document CHEMBL3885861.

# Species: Rattus norvegicus
# PROCEDURE DETAILS: Open TG-GATES - Regimen: Single
# Assay type: toxicity, organism-based, Sprague-Dawley
# Parameters: regimen Single, gender Male, age 6 weeks
# TEST PARAMETERS: in vivo, po, 0 mg/kg, 9 h, tissue Plasma, route gavage, dose level Control
Measured RALB values are reported for all entries that follow.
OUTCOME MEASURE: RALB (g/dL)

{"COMPOUND": "OCCOCCN1CCN(C(c2ccccc2)c2ccc(Cl)cc2)CC1 (stereo not given) [HYDROXYZINE]", "OBSERVED RESULT": 2.5}
{"COMPOUND": "CCC1(c2ccccc2)C(=O)NC(=O)NC1=O", "OBSERVED RESULT": 3.4}
{"COMPOUND": "CN(C)CCC=C1c2ccccc2COc2ccccc21 [DOXEPIN]", "OBSERVED RESULT": 2.4}
{"COMPOUND": "CN(C)C(=N)N=C(N)N", "OBSERVED RESULT": 2.5}
{"COMPOUND": "ClC(Cl)(Cl)Cl [CARBON TETRACHLORIDE]", "OBSERVED RESULT": 3.1}
{"COMPOUND": "O=NN(CCCl)C(=O)NC1CCCCC1", "OBSERVED RESULT": 3.9}
{"COMPOUND": "CC[C@H]1[C@@H]2C[C@H]3[C@@H]4N(C)c5ccccc5[C@]45C[C@@H]([C@@H]2[C@H]5O)N3[C@@H]1O", "OBSERVED RESULT": 3.7}
{"COMPOUND": "CC1=C(CC(=O)O)c2cc(F)ccc2/C1=C\\c1ccc([S+](C)[O-])cc1 (stereo not given)", "OBSERVED RESULT": 2.6}
{"COMPOUND": "CCc1oc2ccccc2c1C(=O)c1cc(Br)c(O)c(Br)c1", "OBSERVED RESULT": 3.8}
{"COMPOUND": "CC(C)N(CCC(C(N)=O)(c1ccccc1)c1ccccn1)C(C)C (stereo not given) [DISOPYRAMIDE]", "OBSERVED RESULT": 2.9}

----------
# Organism: Rattus norvegicus
# PROCEDURE DETAILS: Open TG-GATES - Regimen: Daily Repeat
# Type: toxicity, organism-based, Sprague-Dawley
# Parameters: regimen Daily Repeat, gender Male, age 6 weeks
# TEST PARAMETERS: in vivo, po, 0 mg/kg, […], tissue Blood, route gavage, dose level Control, time 7 day

{"COMPOUND": "CN(C)C(=N)N=C(N)N", "Hb (g/dL)": 13.6}
{"COMPOUND": "CC1=C(CC(=O)O)c2cc(F)ccc2/C1=C\\c1ccc([S+](C)[O-])cc1 (stereo unspecified)", "Hb (g/dL)": 14.4}
{"COMPOUND": "OCCOCCN1CCN(C(c2ccccc2)c2ccc(Cl)cc2)CC1 (stereo unspecified) [HYDROXYZINE]", "Hb (g/dL)": 13.6}
{"COMPOUND": "CN(C)CCC=C1c2ccccc2COc2ccccc21 [DOXEPIN]", "Hb (g/dL)": 13.5}
{"COMPOUND": "ClC(Cl)(Cl)Cl [CARBON TETRACHLORIDE]", "Hb (g/dL)": 13.9}
{"COMPOUND": "CCC1(c2ccccc2)C(=O)NC(=O)NC1=O", "Hb (g/dL)": 14.2}
